Test system: SK-OV-3 ovarian
Assay: NCI-60 one-dose screen, 48 h (100 = growth as untreated, 0 = no growth, -100 = all killed)
Conditions: 10 µM
This is part of a sample that, as a whole, favours compounds with a hit. Of some 83,000 tested, about 20% had one in any assay.
result-type: growth (%)
Provide only the numeric value, understood in %.

- CC(=C(c1ccc(OCCN2CCCCCC2)cc1)c1ccc(OCCN2CCCCCC2)cc1)c1ccc(Cl)cc1: -100
- CCNCCCn1c2c(c3cc(OC)c(OC)cc3c1=O)C(=O)c1cc3c(nc1-2)OCO3: 35.4
- O=C(Nc1cccc([N+](=O)[O-])c1)Nc1cccc([N+](=O)[O-])c1: 129
- Cc1cc(C)cc(Oc2cccc(-c3c(C)nnn3C3CCN(CCN(C)C)CC3)n2)c1: 9.31
- Cc1ccc(-c2nc(Nc3ccc(C)c(S(N)(=O)=O)c3)c3ccccc3n2)cc1: 125

Record Cc1cc(=O)oc2cc(OCCCCOc3ccc(/C=C/C(=O)Nc4ccc(F)c(Cl)c4)cc3)ccc12 . Reported growth: 122

Record Cc1cc(C)nc(/N=C(\N)Nc2ccc(S(=O)(=O)Nc3nc(C)cc(C)n3)cc2)n1 . Reported growth: 106

Record O=C(Nc1cccc(-c2cn(-c3ccc4oc(=O)ccc4c3)nn2)c1)Nc1cc(C(F)(F)F)cc(C(F)(F)F)c1 . Reported growth: 36.5

Record CN1C(=O)N(C)C2SC(N/N=C/c3cccs3)=NC21 (configuration not stated) . Reported growth: 40.7

###

Test system: ACHN renal
Assay: NCI-60 one-dose screen, 48 h (100 = growth as untreated, 0 = no growth, -100 = all killed)
Conditions: 10 µM
Compounds without any hit were thinned out: in the full panel of roughly 83,000, 20% have a hit.
result-type: growth (%)
Provide only the numeric value, understood in %.

• Cc1nc(Nc2nc(C)c3ccc(OCCN4CCOCC4)cc3n2)[nH]c(=O)c1C = -50.2
• C=C(C)[C@@H]1CC[C@]2(C(=O)OC)CC[C@]3(C)[C@H](CC[C@@H]4[C@@]5(C)CC[C@H](N)C(C)(C)[C@@H]5CC[C@]43C)[C@@H]12 = -100
• C#CCNC(=O)[C@]12CCC(C)(C)C[C@H]1C1=CC[C@@H]3[C@@](C)(CCC#N)[C@H](C(=C)C)CC[C@@]3(C)[C@]1(C)CC2 = 60.2
• Cc1ccc(S(=O)(=O)c2nc(-c3ccccc3)oc2S(=O)(=O)CC(=O)N2CCCC2)cc1 = -100
• CC(=O)c1cc(C(=O)c2ccc3c(c2)NC(=O)CO3)n2ccc3ccccc3c12 = 50

Record O=C(Nc1ccc(Cl)c(C(F)(F)F)c1)c1cncc(C#Cc2cnc3ccc(N4CCOCC4)nn23)c1 . Reported growth: -35

Record NS(=O)(=O)c1ccc(N=Nc2c(O)n(CC(=O)Nc3ccccc3Br)c3ccccc23)cc1 . Reported growth: 13.9

Record O=C(CSc1nnc(-c2c[nH]c3ccccc23)n1-c1ccccc1)c1ccc(Cl)cc1 . Reported growth: 57.5

###

System: NCI-H522 lung
Assay: NCI-60 one-dose screen, 48 h (100 = growth as untreated, 0 = no growth, -100 = all killed)
Details: 10 µM
About 83,000 compounds went through this panel and 20% of them were active in at least one assay; those are over-represented in the sample as a whole.
Returns: string. Value is rule met if measured growth is below 60%, and rule not met if it is greater than or equal to it.

# example entries with known answers
• COc1ccc(-c2cc(-c3cc(C(=O)c4ccccc4)n4ccc(C)cc34)nc(N)c2C#N)cc1 = rule not met
• CCOC(=O)C(Cc1ccccc1)N1C(=O)/C(=C/N2N=C(c3ccc(OC)cc3)CC2c2ccc3ccccc3c2)SC1=S (stereo unspecified) = rule met
• Cc1nc2c(cnn2-c2ccccc2)c(=O)n1-c1ccc(NC(=O)c2ccc(F)cc2)cc1 = rule not met
• Cc1nn(-c2ccccc2)c2ncn(CC(=O)N/N=C/c3c[nH]c4ccccc34)c(=O)c12 = rule not met
• C=C(C)[C@@H]1CC[C@]2(C)[C@H](CC=C3[C@@H]4CC(C)(C)CC[C@]4(C(=O)N4CCOCC4)CC[C@]32C)[C@@]1(C)CCCN = rule met

Next up:
Quick check: does CCOC(=O)C1=C(N)N(c2ccc(Cl)cc2)C2=C(C(=O)CC(C)(C)C2)C1c1ccc(N2CCOCC2)cc1 (stereo unspecified) have growth under 60%?
rule not met
